biological target: Retinaldehyde dehydrogenase 3 (Homo sapiens); test: qHTS for Inhibitors of the Aldehyde Dehydrogenase Family (ALDH1A3) Confirmatory screens (AID 2061311); details: ALDH inhibition qHTS; series mostly up to 46 µM; also: nearly all actives have a fitted effect of over 60% in size
Inconclusive results are not listed. Activity calls are given as the source filed them. Calls follow the shape of the dose curve; as a rule, active = well fitted inhibition curve with a large enough effect; inconclusive = small, poorly fitted or top-dose-only effect; inactive = no such curve, though single readings can be large or run the other way.
In this exercise, the only acceptable responses are active, inactive

Solved entries:
• O=C1Nc2ccccc2/C1=C\c1ccc(O)c(F)c1 = active
• COc1ccc(NC(=O)N2CCc3c2ccc2ccccc32)cc1N1CCN(C)CC1 = inactive
• CC(C)c1cc2c(c(O)c1O)[C@@]13CCCC(C)(C)C1[C@@H](O)[C@@H]2OC3=O (some centres not stated) = active
• O=C(C1CCN(Cc2ccccc2-c2ccccc2F)CC1)N1CCC(Cc2ccccc2)CC1 = inactive
• C#Cc1nc(Nc2cccc(Cl)c2)nc(NC2CCCC2)n1 = active

Kindly consider the entry below.
Query :: What was the test verdict on COc1ccc(S(=O)(=O)Nc2cccnc2Nc2ccc(O)cc2)cc1 ?
Result :: active
